- System: HCV replicon 1B
- experiment-description: Cell-based HCV Replicon Assay B, replicon 1B
- experimental-setup: Hepatitis C virus
IC50 by entry:
Give your result in pM as a bare value.

Use these answered entries as a reference point.
- CCC(CC)c1ncc(C2Oc3cc(-c4cnc([C@@H]5CCCN5C(=O)[C@@H](NC(=O)OC)C(C)C)[nH]4)cc(F)c3-c3cc4cc(-c5cnc([C@@H]6CCCN6C(=O)C(NC(=O)OC)C6CCOC(C)(C)C6)[nH]5)ccc4n32)s1 (single isomer, unassigned) [Compound 444]: 3.8
- COC(=O)N[C@H](C(=O)N1CCC[C@H]1c1ncc(-c2cc(F)c3c(c2)OC(c2cnc(C4(C)CCCC4)s2)n2c-3cc3cc(-c4cnc([C@@H]5C[C@H]6C[C@H]6N5C(=O)[C@@H](NC(=O)OC)C(C)C)[nH]4)ccc32)[nH]1)C(C)C (single isomer, unassigned) [Compound 454]: 3.1
- CCc1ncc(C2Oc3cc(-c4cnc([C@@H]5CCCN5C(=O)[C@@H](NC(=O)OC)C(C)C)[nH]4)cc(F)c3-c3cc4cc(-c5cnc([C@@H]6C[C@H]7C[C@H]7N6C(=O)C(NC(=O)OC)C6CCOC(C)(C)C6)[nH]5)ccc4n32)s1 (single isomer, unassigned) [Compound 92]: 6
- COC(=O)N[C@H](C(=O)N1CCC[C@H]1c1ncc(-c2cc(C)c3c(c2)OC(c2cnc(C4CC4)s2)n2c-3cc3cc(-c4cnc([C@@H]5C[C@H]6C[C@H]6N5C(=O)[C@@H](NC(=O)OC)C(C)C)[nH]4)ccc32)[nH]1)C(C)C (single isomer, unassigned) [Compound 203]: 3
- COC(=O)NC(C(=O)N1CCC[C@H]1c1ncc(-c2ccc3c(c2)cc2n3C(c3sc(C(C)C)nc3C)Oc3cc(-c4cnc([C@@H]5CCCN5C(=O)[C@@H](NC(=O)OC)C(C)C)[nH]4)cc(F)c3-2)[nH]1)C1CCOC(C)(C)C1 (single isomer, unassigned) [Compound 434]: 3.5

Output IC50 of COC(=O)N[C@H](C(=O)N1CCC[C@H]1c1ncc(-c2cc(F)c3c(c2)OC(c2cnc(C4CC4)s2)n2c-3c(F)c3cc(-c4cnc([C@@H]5CCCN5C(=O)[C@@H](NC(=O)OC)C5CCOCC5)[nH]4)ccc32)[nH]1)C(C)C (single isomer, unassigned) [Compound 41] 2

Answer with the recorded IC50 for the molecule listed here: COC(=O)NC(C(=O)N1[C@@H]2C[C@@H]2C[C@H]1c1ncc(-c2ccc3c(c2)cc2n3C(c3cnc(C4CC4)s3)Oc3cc(-c4cnc([C@@H]5CCCN5C(=O)[C@@H](NC(=O)OC)C(C)C)[nH]4)cc(F)c3-2)[nH]1)C1C[C@@H](C)O[C@H](C)C1 (single isomer, unassigned) [Compound 312] 2

Please look at this molecule and report its IC50: COC(=O)N[C@H](C(=O)N1CCC[C@H]1c1ncc(-c2cc(F)c3c(c2)OC(c2csc(C4CC4)n2)n2c-3cc3cc(-c4cnc([C@@H]5CCCN5C(=O)[C@@H](NC(=O)OC)C(C)C)[nH]4)ccc32)[nH]1)C(C)C (single isomer, unassigned) [Compound 432] 1

For the molecule COC(=O)N[C@H](C(=O)N1CCC[C@H]1c1ncc(-c2cc(F)c3c(c2)OC(c2cnc(C4CC4)s2)n2c-3c(F)c3cc(-c4cnc([C@@H]5CCCN5C(=O)[C@@H](NC(=O)OC)C(C)C)[nH]4)ccc32)[nH]1)C(C)C (single isomer, unassigned) [Compound 21] , give its reported IC50. 4

Please look at this molecule and report its IC50: COC(=O)N[C@H](C(=O)N1CCC[C@H]1c1ncc(-c2cc(F)c3c(c2)OC(c2cnns2)n2c-3cc3cc(-c4cnc([C@@H]5CCCN5C(=O)[C@@H](NC(=O)OC)C(C)C)[nH]4)ccc32)[nH]1)C(C)C (single isomer, unassigned) [Compound 3] 2

Provide one value: measured IC50 of COC(=O)NC(C(=O)N1CCC[C@H]1c1ncc(-c2ccc3c(c2)cc2n3C(c3cnc(C(C)(C)C)s3)Oc3cc(-c4cnc([C@@H]5CCCN5C(=O)[C@@H](NC(=O)OC)C(C)C)[nH]4)cc(F)c3-2)[nH]1)C1CCOC(C)(C)C1 (single isomer, unassigned) [Compound 315] 2

Entry COC(=O)N[C@H](C(=O)N1CCC[C@H]1c1ncc(-c2cc(F)c3c(c2)OC(c2cnc(C(C)C)s2)n2c-3cc3cc(-c4cnc([C@@H]5C[C@H]6C[C@H]6N5C(=O)[C@@H](NC(=O)OC)C(C)C)[nH]4)ccc32)[nH]1)C(C)C (single isomer, unassigned) [Compound 89] needs its IC50 filled in; supply it. 3

Kindly indicate its recorded IC50. Item: COC(=O)N[C@H](C(=O)N1CCC[C@H]1c1ncc(-c2cc(F)c3c(c2)OC(c2cnc(C)s2)n2c-3cc3cc(-c4cnc([C@@H]5CCCN5C(=O)[C@@H](NC(=O)OC)C(C)C)[nH]4)ccc32)[nH]1)C(C)C (mixture of isomers) [Compound 416] 3

Fill in reported IC50 for this entry: COC(=O)N[C@H](C(=O)N1CCC[C@H]1c1ncc(-c2cc(F)c3c(c2)OC(c2cnc(C4CC4)s2)n2c-3cc3cc(-c4cnc([C@@H]5C[C@H]6C[C@H]6N5C(=O)[C@@H](NC(=O)OC)C(C)C)[nH]4)ccc32)[nH]1)C(C)C (single isomer, unassigned) [Compound 300] 3
